Target: Cloned human M1 receptor (CHRM1) (Homo sapiens, UniProt P11229)
Experiment: CHRM1 Ca++ Flux Assay (HEK293 M1 cells, agonist mode)
Conditions: geometric mean if tested more than once, read-out: M1 FDSS EC50
pEC50: −log10 of the molar value.
reported-metric: pEC50

Examples with their reported pEC50 follow.
>>> readout_value("Fc1ccc(OC2CCOCC2)c(C2CCN([C@@H]3COC4(C3)CN(c3ncon3)C4)CC2)c1")
6.05
>>> readout_value("Fc1ccc(OC2CC3(COC3)C2)c(C2CCN([C@@H]3COC4(C3)CN(c3ncco3)C4)CC2)c1")
5.76

a: Fc1ccc(OC[C@@H]2CCOC2)c(C2CCN([C@@H]3COC4(C3)CN(c3nncs3)C4)CC2)c1
b: Fc1ccc(OC[C@H]2CCCO2)c(C2CCN([C@@H]3COC4(C3)CN(c3nnco3)C4)CC2)c1
c: c1ccc(C2CCN([C@@H]3COC4(C3)CN(c3ncco3)C4)CC2)c(OC2CCOCC2)c1
d: c1ccc(C2CCN([C@@H]3COC4(C3)CN(c3nnco3)C4)CC2)c(-c2cncnc2)c1
Arrange these 4 compounds in increasing order of pEC50. Return the labels ranked in the requested order, please.
b, c, a, d
(b: 5.45, c: 5.78, a: 6.11, d: 6.47)

1: Fc1ccc(OC2CC3(COC3)C2)c(C2CCN([C@@H]3COC4(C3)CN(c3nncs3)C4)CC2)c1
2: Fc1ccc(OC2COC2)c(C2CCN([C@@H]3COC4(C3)CN(c3ncon3)C4)CC2)c1
Hi team, can someone confirm which has the larger pEC50: 1 or 2 ? Thanks. Which one? Tell me its label.
2
(2: 6.31, 1: 5.44)

---

Target: Cloned human M1 receptor (CHRM1) (Homo sapiens, UniProt P11229)
Assay: CHRM1 Ca++ Flux Assay (HEK293 M1 cells, agonist mode)
Details: geometric mean if tested more than once, read-out: M1 FDSS EC50
reported-metric: EC50 (nM)

>>> readout_value("COC(C)(C)CCOc1ccc(F)cc1C1CCN([C@@H]2COC3(C2)CN(c2nncs2)C3)CC1 [Example 5N]")
2970
>>> readout_value("CC(C)(O)COc1ccc(F)cc1C1CCN([C@@H]2COC3(C2)CN(c2nncs2)C3)CC1 [Example 5U]")
2440

1: COCCOc1ccc(F)cc1C1CCN([C@@H]2COC3(C2)CN(c2nncs2)C3)CC1 [Example 5S]
2: OC[C@H]1C[C@H](Oc2ccc(F)cc2C2CCN([C@@H]3COC4(C3)CN(c3nnco3)C4)CC2)C1 (single isomer, unassigned) [Example 2II]
3: OC[C@H]1C[C@H](Oc2ccc(F)cc2C2CCN([C@@H]3COC4(C3)CN(c3nnco3)C4)CC2)C1 (single isomer, unassigned) [Example 2HH]
4: c1ccc(C2CCN([C@@H]3COC4(C3)CN(c3nnco3)C4)CC2)c(OC2COC2)c1 [Example 1P]
Arrange these 4 compounds in increasing order of EC50. Return the labels ranked in the requested order, please.
4, 1, 3, 2

---

Molecular target: UniProt:P08173
Sequence (P08173 whole entry): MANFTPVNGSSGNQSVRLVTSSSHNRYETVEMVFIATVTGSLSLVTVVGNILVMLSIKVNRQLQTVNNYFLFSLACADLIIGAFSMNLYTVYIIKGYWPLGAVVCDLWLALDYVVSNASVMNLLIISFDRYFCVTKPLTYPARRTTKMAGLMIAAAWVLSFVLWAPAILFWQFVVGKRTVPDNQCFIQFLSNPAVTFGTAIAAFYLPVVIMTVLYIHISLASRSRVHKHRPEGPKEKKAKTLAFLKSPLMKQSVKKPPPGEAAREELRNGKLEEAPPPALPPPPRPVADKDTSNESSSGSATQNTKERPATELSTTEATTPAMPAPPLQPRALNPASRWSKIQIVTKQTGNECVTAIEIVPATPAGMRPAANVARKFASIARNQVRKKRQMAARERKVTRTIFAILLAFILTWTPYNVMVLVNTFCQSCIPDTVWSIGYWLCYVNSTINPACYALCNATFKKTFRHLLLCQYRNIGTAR
Experiment: CHRM4 Ca++ Flux Assay (M4_CHO cells, agonist mode)
Settings: geometric mean if tested more than once, read-out: M4 FDSS EC50
From the text: The above examples were characterized by measuring the intracellular mobilization of Ca^++ ions caused by signaling events mediated by the receptor. […]
reported-metric: EC50 (nM)

Examples with their reported EC50 follow.
>>> readout_value("COCCOc1ccc(F)cc1C1CCN([C@@H]2COC3(C2)CN(c2nnco2)C3)CC1")
99
>>> readout_value("Fc1ccc(OC[C@H]2CCO2)c(C2CCN([C@@H]3COC4(C3)CN(c3nncs3)C4)CC2)c1.O=C(O)C(F)(F)F (single isomer, unassigned) [Example 2C]")
94
>>> readout_value("Fc1ccc(OC[C@H]2COCCO2)c(C2CCN([C@@H]3COC4(C3)CN(c3nncs3)C4)CC2)c1")
31

a: CC1(C)C[C@@H](Oc2ccc(F)cc2C2CCN([C@@H]3COC4(C3)CN(c3nnco3)C4)CC2)CO1 (single isomer, unassigned) [Example 2N]
b: Fc1ccc(O[C@H]2CCOC2)c(C2CCN([C@@H]3COC4(C3)CN(c3nnco3)C4)CC2)c1
c: c1ccc(C2CCN([C@@H]3COC4(C3)CN(c3nnco3)C4)CC2)c(-c2cncnc2)c1
d: Fc1cc(OCC2(F)COC2)c(C2CCN([C@@H]3COC4(C3)CN(c3ncco3)C4)CC2)cc1F
Arrange these 4 compounds in increasing order of EC50. Return the labels ranked in the requested order, please.
d, c, b, a

---

Molecular target: Cloned human M1 receptor (CHRM1) (Homo sapiens)
Construct: expressed in transfected cells; host or cells: HEK293
Sequence (P11229 1-460): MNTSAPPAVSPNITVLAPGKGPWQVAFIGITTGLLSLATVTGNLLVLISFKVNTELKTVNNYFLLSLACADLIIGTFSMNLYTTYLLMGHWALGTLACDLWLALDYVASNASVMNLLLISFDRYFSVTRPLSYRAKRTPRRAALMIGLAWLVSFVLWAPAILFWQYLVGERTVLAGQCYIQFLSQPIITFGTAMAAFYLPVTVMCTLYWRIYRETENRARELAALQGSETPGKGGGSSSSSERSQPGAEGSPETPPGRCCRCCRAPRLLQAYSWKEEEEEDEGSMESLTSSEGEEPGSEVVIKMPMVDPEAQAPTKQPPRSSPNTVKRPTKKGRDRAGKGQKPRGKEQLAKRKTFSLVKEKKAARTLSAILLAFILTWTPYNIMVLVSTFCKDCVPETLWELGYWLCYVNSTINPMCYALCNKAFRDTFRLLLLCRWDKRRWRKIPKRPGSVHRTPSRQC
Assay: CHRM1 Ca++ Flux Assay (HEK293 M1 cells, agonist mode)
Assay type: cell-based
Conditions: Percent Activity (PA), read-out: M1 FDSS PA %
reported-metric: Emax (%)

>>> readout_value("Fc1cc(F)c(OC2CCOCC2)c(C2CCN([C@@H]3COC4(C3)CN(c3nnco3)C4)CC2)c1")
65
>>> readout_value("Fc1ccc(OC2CC3(COC3)C2)c(C2CCN([C@@H]3COC4(C3)CN(c3ncon3)C4)CC2)c1")
65
>>> readout_value("COc1ccccc1C1CCN([C@@H]2COC3(C2)CN(c2nnco2)C3)CC1")
81
>>> readout_value("Fc1ccc(OC[C@H]2COCCO2)c(C2CCN([C@@H]3COC4(C3)CN(c3ncco3)C4)CC2)c1")
117
>>> readout_value("Fc1cc(OCC2(F)COC2)c(C2CCN([C@@H]3COC4(C3)CN(c3ncco3)C4)CC2)cc1F")
89
>>> readout_value("COc1cc(F)ccc1C1CCN([C@@H]2COC3(C2)CN(c2nnco2)C3)CC1")
71
>>> readout_value("Fc1ccc(C2CCOCC2)c(C2CCN([C@@H]3COC4(C3)CN(c3nnco3)C4)CC2)c1")
75
>>> readout_value("CC(C)(O)CCOc1cc(F)ccc1C1CCN([C@@H]2COC3(C2)CN(c2nnco2)C3)CC1")
74
>>> readout_value("Cc1nnc(-c2ccccc2C2CCN([C@@H]3COC4(C3)CN(c3nnco3)C4)CC2)o1")
107
>>> readout_value("c1ccc(C2CCN([C@@H]3COC4(C3)CN(c3nnco3)C4)CC2)c(C2CCOCC2)c1")
78
>>> readout_value("Cc1cc(COc2ccc(F)cc2C2CCN([C@@H]3COC4(C3)CN(c3nnco3)C4)CC2)on1")
89
>>> readout_value("Fc1ccc(OCC2COC2)c(C2CCN([C@@H]3COC4(C3)CN(c3nncs3)C4)CC2)c1")
103
>>> readout_value("Fc1ccc(OC2CCOCC2)c(C2CCN([C@@H]3COC4(C3)CN(c3nnco3)C4)CC2)c1")
77
>>> readout_value("Fc1ccc(OC[C@@H]2CCOC2)c(C2CCN([C@@H]3COC4(C3)CN(c3nncs3)C4)CC2)c1")
69
>>> readout_value("Fc1ccc(O[C@@H]2CCOC2)c(C2CCN([C@@H]3COC4(C3)CN(c3ncco3)C4)CC2)c1")
95
>>> readout_value("Fc1ccc(OC2COC2)c(C2CCN([C@@H]3COC4(C3)CN(c3nncs3)C4)CC2)c1")
88

---

Biological target: human cloned CHRM2 receptor (Homo sapiens, UniProt P08172)
Construct: expressed in transfected cells; host or cells: CHO-K1 (M2_CHO)
Sequence (P08172 1-466): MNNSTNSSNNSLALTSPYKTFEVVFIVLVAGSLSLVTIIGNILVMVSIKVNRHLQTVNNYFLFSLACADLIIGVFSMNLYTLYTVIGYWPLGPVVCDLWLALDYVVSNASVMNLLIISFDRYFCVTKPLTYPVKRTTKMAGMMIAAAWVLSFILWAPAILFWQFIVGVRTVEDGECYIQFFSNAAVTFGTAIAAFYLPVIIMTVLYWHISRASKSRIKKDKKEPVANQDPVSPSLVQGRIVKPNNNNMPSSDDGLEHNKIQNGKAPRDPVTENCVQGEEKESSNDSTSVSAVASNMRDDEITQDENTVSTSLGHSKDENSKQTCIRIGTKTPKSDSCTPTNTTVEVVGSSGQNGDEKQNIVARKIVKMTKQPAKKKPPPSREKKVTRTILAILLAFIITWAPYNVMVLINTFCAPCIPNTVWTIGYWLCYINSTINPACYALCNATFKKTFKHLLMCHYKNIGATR
Assay: CHRM2 Ca++ Flux Assay (M2_CHO cells, agonist mode)
Type: cell-based
Details: Percent Activity (PA) measured to EC100 of Carbachol; M2 CHO cells
reported-metric: M2 FDSS PA % (%)

>>> readout_value("Fc1ccc(OC[C@H]2CCO2)c(C2CCN([C@@H]3COC4(C3)CN(c3nncs3)C4)CC2)c1.O=C(O)C(F)(F)F (single isomer, unassigned) [Example 2D]")
50
>>> readout_value("O[C@H]1CC[C@@H](c2ccc(F)cc2C2CCN([C@@H]3COC4(C3)CN(c3nnco3)C4)CC2)CC1 (single isomer, unassigned) [Example 3H]")
30
>>> readout_value("Fc1ccc(O[C@H]2CCCOC2)c(C2CCN([C@@H]3COC4(C3)CN(c3nnco3)C4)CC2)c1 (single isomer, unassigned) [Example 2Q]")
26
>>> readout_value("O[C@H]1CC[C@@H](c2ccc(F)cc2C2CCN([C@@H]3COC4(C3)CN(c3nnco3)C4)CC2)CC1 (single isomer, unassigned) [Example 3I]")
32
>>> readout_value("CC(C)(O)[C@H]1C[C@H](Oc2ccc(F)cc2C2CCN([C@@H]3COC4(C3)CN(c3nnco3)C4)CC2)C1 (single isomer, unassigned) [Example 2W]")
29
>>> readout_value("CC(C)(O)[C@H]1C[C@H](Oc2ccc(F)cc2C2CCN([C@@H]3COC4(C3)CN(c3nnco3)C4)CC2)C1 (single isomer, unassigned) [Example 2V]")
28

Taken from patent US11485742B2.
